# System: murine neural precursor cells (neurosphere cultures)
# protocol.details: HTS of LOPAC library against secondary neurosphere cultures, MTT proliferation assay at 3 μM, day 7 (z score, P value)
# Assay type: cell-based, mouse
# test.context: LOPAC primary screen, neurosphere MTT proliferation, 3 μM, day 7
Counter-ions that a name gives are not always drawn.
We use -0.2 as the dividing line for Z score: on or above the line is MET, below is NOT MET.

                                    molecule  discrete_label
 0  CC(C)COC(=O)OCN1C(=O)CN(CCN2CC(=O)N(COC(=O)OCC(C)C)C(=O)C2)CC1=O [Sobuzoxane]         NOT MET
 1  CCn1cc(C(=O)O)c(=O)c2cc3c(cc21)OCO3 [Oxolinic acid]             MET
 2  C#CCN(C)Cc1ccccc1 [Pargyline hydrochloride]         NOT MET
 3               Oc1ccc(O)cc1 [Hydroquinone]             MET
 4  c1ccc2c(c1)OCC(C1=NCCN1)O2 (stereo not drawn) [Idazoxan hydrochloride]         NOT MET
 5  CN1CCc2cccc3c2[C@H]1Cc1ccc(O)c(O)c1-3 [(R)-(−)-Apomorphine (6), (R)-(−)-Apomorphine]         NOT MET
 6  CN1CCC(=C2c3ccccc3CC(=O)c3sccc32)CC1 [Ketotifen fumarate]             MET
 7  NC(=O)c1ccc(OCC(O)CN2CC=C(c3ccc(F)cc3)CC2)cc1 (stereo not drawn) [Ro 8-4304]         NOT MET
 8  Cl.O=C(O)Cc1c[nH]cn1 [Imidazole-4-acetic acid hydrochloride]         NOT MET
 9  O=C(O)CCCCC1CCSS1 (racemic) [(±)-alpha-Lipoic Acid]             MET
10  CC(C)NCC(O)c1ccc(O)c(O)c1.Cl (racemic) [(±)-Isopoterenol hydrochloride]         NOT MET
11  CCCCCCCCC(=O)NCc1ccc(O)c(OC)c1 [N-Vanillylnonanamide]         NOT MET
12                COc1ccc2[nH]c3c(c2c1)CCNC3         NOT MET
13  Cl.c1ccc2c(N3CCNCC3)cccc2c1 [1-(1-Naphthyl)piperazine hydrochloride]             MET
14  OCc1cc(C(O)CNCCCCCCOCCCCc2ccccc2)ccc1O (stereo not drawn) [Salmeterol]         NOT MET
15  CCN(CC)CC#CCOC(=O)C(O)(c1ccccc1)C1CCCCC1 (stereo not drawn) [Oxybutynin Chloride]             MET
16  CCCCCCCCCCCCCCCC(=O)OC(CC(=O)O)C[N+](C)(C)C.[Cl-] (racemic) [Palmitoyl-DL-Camitine chloride]             MET
